Taken from patent US20130216547A1.

- subjectOfTest: T1, mouse big-ET-1 (mouse)
- T1 peptide: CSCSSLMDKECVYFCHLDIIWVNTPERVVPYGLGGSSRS
- testDetails: cell-based or functional assay
attributeMeasured: Blocking IC50(M), 20 nM mBig-ET-1 + 5 nM mECE1; 293/ETaR/NFAT-Luc luciferase

Known Blocking IC50(M), 20 nM mBig-ET-1 + 5 nM mECE1; 293/ETaR/NFAT-Luc luciferase results, listed for orientation:
binder: H4H6317P (antibody, V domains shown, Human IgG4 Fc (prefix H4H)) VH: QVQLVESGGGVVQPGRSLRLSCAASGFTFSSYGMHWVRQAPGKGLEWVAVLWYDGRNKYYADSVKGRFTISRDNSKNTLYLQMNSLRAEDTAVYYCARSYDAFDIWGQGTMVTVSS VL: DIQMTQSPSTLSASVGDRVTITCRASQSISSWLAWFQQGPGRAPKLLIYKASTLQSGVPSRFSGSGSGTEFTLTISSLQPDDFATYYCQQYRSYSPTFGQGTKVEIK
result: > 1e-07 M
--
binder: H4H6353P (antibody, V domains shown, Human IgG4 Fc (prefix H4H)) VH: EVQLVESGGGLVKPGGSLRLSCAASGFSFNYAWMSWVRQAPGKGLEWIGRIKSKINGGTTDYTAPVKGRFTISRDDSKNTLYLQMNSLKTEDTAVYYCRGDEDFWGQGTLVTVSS VL: DVVMTQSPLSLPVTLGQPASISCRSSQSLVYSDGFTYLNWFRQRPGQSPRRLIYKVSNRDSGVPDRFSGSGSGTDFTLRISRVEAEDVGIYYCMQGTHWPYTFGQGTKLEIK
result: > 1e-07 M

Shifting focus to the binder that follows.
Field Blocking IC50(M), 20 nM mBig-ET-1 + 5 nM mECE1; 293/ETaR/NFAT-Luc luciferase (entry H4H6329P (antibody, V domains shown, Human IgG4 Fc (prefix H4H)) VH: QVQLVESGGGVVQPGRSLRLSCAASGFTFGSYGMHWVRQAPGKGLEWVAVIWYDGSDEYYTDSVKGRFTVSRDNSKYTLYLQMNSLRADDTAVYYCARDGYRTRGNYFDYWGQGTLVTVSS VL: DVVMTQSPLSLPVALGQPASISCRSSQSLVYSDGNTYLNWFQQRPGQSPRRLIYKVSNRDSGVPDRFGGSGSGTDFTLKISRVEAEDVGLYYCMQGTHWPPTFGGGTKVEIK ) reads > 1e-07 M
